Source of measurements: patent US20240383875A1

These compounds were tested on SIK3 (Homo sapiens, UniProt Q9Y2K2); pIC50 is the recorded read-out.
Sequence (Q9Y2K2 whole entry): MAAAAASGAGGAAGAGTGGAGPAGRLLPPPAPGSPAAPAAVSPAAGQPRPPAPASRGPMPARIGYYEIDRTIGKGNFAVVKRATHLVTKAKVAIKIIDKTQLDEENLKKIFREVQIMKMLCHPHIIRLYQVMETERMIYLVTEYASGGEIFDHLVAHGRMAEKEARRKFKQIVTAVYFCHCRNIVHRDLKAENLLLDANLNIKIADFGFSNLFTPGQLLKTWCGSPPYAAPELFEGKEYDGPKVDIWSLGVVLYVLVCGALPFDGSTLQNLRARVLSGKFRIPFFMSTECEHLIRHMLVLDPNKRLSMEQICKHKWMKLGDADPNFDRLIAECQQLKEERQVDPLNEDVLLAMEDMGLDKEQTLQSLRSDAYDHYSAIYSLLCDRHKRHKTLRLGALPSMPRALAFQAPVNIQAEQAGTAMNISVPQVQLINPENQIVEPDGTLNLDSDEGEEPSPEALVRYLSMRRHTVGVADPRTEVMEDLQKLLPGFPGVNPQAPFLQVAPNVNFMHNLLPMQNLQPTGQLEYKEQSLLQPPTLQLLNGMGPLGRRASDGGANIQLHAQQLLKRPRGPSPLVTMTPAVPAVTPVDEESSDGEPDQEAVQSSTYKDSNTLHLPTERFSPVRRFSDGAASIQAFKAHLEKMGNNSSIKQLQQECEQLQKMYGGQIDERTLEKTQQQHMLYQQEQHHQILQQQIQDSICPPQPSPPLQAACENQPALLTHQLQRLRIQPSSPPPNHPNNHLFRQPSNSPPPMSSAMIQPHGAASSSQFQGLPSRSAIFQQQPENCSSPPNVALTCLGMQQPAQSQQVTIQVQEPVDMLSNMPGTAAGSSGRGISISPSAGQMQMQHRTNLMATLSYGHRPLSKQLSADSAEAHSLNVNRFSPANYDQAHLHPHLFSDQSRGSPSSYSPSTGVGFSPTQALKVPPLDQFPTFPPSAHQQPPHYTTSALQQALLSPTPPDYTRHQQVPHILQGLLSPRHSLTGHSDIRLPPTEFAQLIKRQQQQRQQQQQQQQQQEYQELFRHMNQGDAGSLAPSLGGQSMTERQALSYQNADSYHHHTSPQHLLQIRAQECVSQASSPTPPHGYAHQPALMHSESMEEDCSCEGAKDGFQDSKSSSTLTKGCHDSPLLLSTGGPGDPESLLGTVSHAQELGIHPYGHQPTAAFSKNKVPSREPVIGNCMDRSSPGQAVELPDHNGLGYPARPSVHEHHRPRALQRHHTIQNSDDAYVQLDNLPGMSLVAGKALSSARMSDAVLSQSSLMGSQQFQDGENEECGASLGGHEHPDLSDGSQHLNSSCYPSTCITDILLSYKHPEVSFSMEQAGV
pIC50: −log10 of the molar value.
recordedEndpoint: pIC50

compound | quantitativeReadout
Cc1cc(C#N)nn1-c1nc(-n2cnc3ccc(N4CC[C@H]5CNC(=O)[C@H]54)cc32)ccc1C(C)O (stereo partly shown) | 7.20

a. COc1cc2ncn(-c3ccc(CO)c(-c4ccc(F)cc4OC)n3)c2cc1OC
b. Cc1ccc(Nc2ccc3c(c2)ncn3-c2ccc(C(C)O)c(N3CCOC(C(F)F)C3)n2)nn1 (stereo not shown)
c. Cc1cc(C#N)nn1-c1nc(-n2cnc3cc(N4CCN(C5COC5)CC4)c(Br)cc32)ccc1C(C)O (stereo not shown)
# desc sort on pIC50 across 3 compounds The response must list the labels following the requested ordering.
b, c, a

###

These compounds were tested on SIK2 (Homo sapiens, UniProt Q9H0K1); IC50 is the recorded read-out.
Sequence (Q9H0K1 whole entry): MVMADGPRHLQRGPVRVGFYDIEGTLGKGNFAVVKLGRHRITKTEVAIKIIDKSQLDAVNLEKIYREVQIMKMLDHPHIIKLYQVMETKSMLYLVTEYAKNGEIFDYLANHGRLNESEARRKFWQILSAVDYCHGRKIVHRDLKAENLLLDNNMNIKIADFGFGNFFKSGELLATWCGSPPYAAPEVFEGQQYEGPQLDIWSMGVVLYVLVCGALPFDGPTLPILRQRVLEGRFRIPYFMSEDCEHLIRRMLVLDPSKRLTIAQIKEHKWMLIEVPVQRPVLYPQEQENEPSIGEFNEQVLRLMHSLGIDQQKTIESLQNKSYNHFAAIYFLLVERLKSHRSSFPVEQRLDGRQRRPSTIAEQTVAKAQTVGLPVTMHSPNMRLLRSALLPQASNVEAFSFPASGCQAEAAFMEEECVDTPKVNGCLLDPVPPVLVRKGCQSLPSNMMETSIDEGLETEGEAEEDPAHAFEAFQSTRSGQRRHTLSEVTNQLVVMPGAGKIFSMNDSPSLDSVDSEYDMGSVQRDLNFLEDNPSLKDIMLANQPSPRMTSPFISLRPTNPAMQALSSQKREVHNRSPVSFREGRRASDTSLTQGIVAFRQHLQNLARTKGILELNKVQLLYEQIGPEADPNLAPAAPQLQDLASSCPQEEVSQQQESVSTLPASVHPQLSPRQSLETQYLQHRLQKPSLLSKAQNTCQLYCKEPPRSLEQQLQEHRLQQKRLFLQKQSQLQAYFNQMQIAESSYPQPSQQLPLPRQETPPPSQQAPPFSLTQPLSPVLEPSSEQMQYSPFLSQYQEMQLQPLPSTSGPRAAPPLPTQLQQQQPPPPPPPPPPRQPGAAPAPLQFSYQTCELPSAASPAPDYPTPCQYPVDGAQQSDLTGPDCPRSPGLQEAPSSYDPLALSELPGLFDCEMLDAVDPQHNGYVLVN
recordedEndpoint: IC50 (nM)

A. CCOc1cc(C)n(-c2nc(-n3cnc4ccc(Nc5ccc(C)nn5)cc43)ccc2C(C)O)n1 (stereo not shown)
B. COc1cc2ncn(-c3ccc([C@@H](C)O)c(-c4cccc(C#N)c4)n3)c2cc1OC
C. Cc1ccc(Nc2ccc3c(c2)ncn3-c2ccc(C(C)O)c(-c3nnn(CC(F)(F)F)c3C)n2)nn1 (stereo not shown)
Reorder the records above by IC50 so that values decrease. The response must list the labels following the requested ordering.
A, B, C
(A: 345 nM, B: 58.4 nM, C: 0.3 nM)

###

- targetOrTestSystem: SIK1 (Homo sapiens)
- Sequence (P57059 whole entry): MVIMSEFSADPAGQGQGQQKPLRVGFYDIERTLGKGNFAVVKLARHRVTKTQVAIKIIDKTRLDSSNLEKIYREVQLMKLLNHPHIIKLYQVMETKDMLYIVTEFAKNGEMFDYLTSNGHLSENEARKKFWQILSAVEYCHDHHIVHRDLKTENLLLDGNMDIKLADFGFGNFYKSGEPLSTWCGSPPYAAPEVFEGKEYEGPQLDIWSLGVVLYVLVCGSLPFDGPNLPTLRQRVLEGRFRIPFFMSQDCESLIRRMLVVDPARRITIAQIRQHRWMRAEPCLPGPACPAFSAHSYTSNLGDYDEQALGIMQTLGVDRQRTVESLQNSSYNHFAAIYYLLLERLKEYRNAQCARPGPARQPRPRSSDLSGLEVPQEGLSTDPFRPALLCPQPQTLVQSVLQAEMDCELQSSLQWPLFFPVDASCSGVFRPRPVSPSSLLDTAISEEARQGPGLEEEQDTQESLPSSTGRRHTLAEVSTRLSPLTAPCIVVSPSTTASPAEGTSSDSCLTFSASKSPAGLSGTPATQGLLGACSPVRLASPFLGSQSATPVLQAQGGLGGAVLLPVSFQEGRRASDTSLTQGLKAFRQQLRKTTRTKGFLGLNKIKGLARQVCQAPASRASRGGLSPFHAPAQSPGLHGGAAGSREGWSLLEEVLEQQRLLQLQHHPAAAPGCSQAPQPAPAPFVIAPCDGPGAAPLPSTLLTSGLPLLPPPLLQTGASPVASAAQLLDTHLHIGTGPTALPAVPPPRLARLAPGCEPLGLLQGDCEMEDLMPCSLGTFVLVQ
- protocolText: Enzymatic activity assay SIK1, RapidFire mass spectrometry (phosphorylation of CHK-peptide)
- Assay type: biochemical
- experimentalParameters: RapidFire MS, inhibition of SIK1; read-out: SIK1 RF IC50
recordedEndpoint: IC50 (nM)

compound | IC50 (nM)
Cc1ccc(Nc2ccc3c(c2)ncn3-c2ccc(C(C)O)c(-c3cc(F)cnc3Cl)n2)nn1 (stereo not shown) [Example 174, formic acid] | 12100
COC(=N)c1cc(C)n(-c2nc(-n3cnc4cc(Nc5ccc(C)nn5)ccc43)ccc2[C@H](C)O)n1 [Example 276] | 82
Cc1ccc(Nc2ccc3c(c2)ncn3-c2ccc([C@H](C)O)c(-c3cn(CC(F)(F)F)nc3C)n2)nn1 [Example 252] | 5620
Cc1ccc(Nc2ccc3c(c2)ncn3-c2ccc([C@H](C)O)c(-n3nc(C(F)F)cc3C)n2)nn1 [Example 229] | 223
Cc1cc(C#N)nn1-c1nc(-n2cnc3cc(Nc4cnn(C5COC5)c4)ccc32)ccc1C(C)O (stereo not shown) [Example 71] | 5

1. Cc1ccc(Nc2ccc3c(c2)ncn3-c2ccc(C(C)O)c(NCC3(C#N)CC3)n2)nn1 (stereo not shown) [Example 116, formic acid]
2. Cc1ccc(Nc2ccc3c(c2)ncn3-c2ccc(C(C)O)c(-n3nc(C#N)cc3C)n2)nc1 (stereo not shown) [Example 84]
I'm curious whether 1 or 2 has the smaller IC50 number. Which is it? // return label of chosen record
2

###

These compounds were tested on UniProtKB P57059; IC50 is the recorded read-out.
recordedEndpoint: IC50 (nM)

Below, each entry is followed by its recorded IC50 result.
compound | IC50 (nM)
Cc1cc(C(F)F)nn1-c1nc(-n2cnc3cc(Nc4cc5c(nn4)CCOC5)ccc32)ccc1CO [Example 317] | 961
COC(C)Cn1cc(-c2nc(-n3cnc4cc(Nc5ccc(C)nn5)ccc43)ccc2C(C)O)c(C)n1 (stereo not drawn) [Example 278] | 249
Cc1ccc(Nc2ccc3c(c2)ncn3-c2ccc(C(C)O)c(N3CC4CC(F)(F)C4C3)n2)nn1 (stereo not drawn) [Example 326] | 1670

1. Cc1ccc(Nc2ccc3c(c2)ncn3-c2ccc(C(C)O)c(-c3cn(CC(F)F)nc3C)n2)nn1 (stereo not drawn) [Example 313]
2. Cc1ccc(Nc2ccc3c(c2)ncn3-c2ccc(C(C)O)c(N3C[C@@H](C#N)C[C@H]3C)n2)nn1 (stereo partly drawn) [Example 254]
3. Cc1ccc(Oc2ccc3ncn(-c4ccc(C(C)O)c(-n5nc(C#N)cc5C)n4)c3c2)nn1 (stereo not drawn) [Example 74]
4. Cc1ccc(Nc2ccc3c(c2)ncn3-c2ccc(C(C)O)c(-n3cc(C#N)c(C)n3)n2)nn1 (stereo not drawn) [Example 182]
Ascending by IC50, please. The response must list the labels following the requested ordering.
3, 1, 2, 4

###

- targetOrTestSystem: SIK3 (Homo sapiens, UniProt Q9Y2K2)
recordedEndpoint: IC50 (nM)

Below, each entry is followed by its recorded IC50 result.
molecule | recordedEndpoint | unitsLabel | quantitativeReadout
Cc1ccc(Nc2cc3ncn(-c4ccc([C@@H](C)O)c(-n5nc(OC(F)F)cc5C)n4)c3cc2F)nn1 | IC50 | nM | 8.7
Cc1cc(C#N)nn1-c1nc(-n2cnc3cc(Nc4cc5c(nn4)CCC5)c(F)cc32)ccc1C(C)O (stereo not shown) | IC50 | nM | 0.6

I. Cc1ccc(Nc2ccc3c(c2)ncn3-c2ccc(C(C)O)c(-c3nn(CC(F)(F)F)nc3C)n2)nn1 (stereo not shown)
II. Cc1cnc(Nc2ccc3c(c2)ncn3-c2ccc(C(C)O)c(-n3nc(C#N)cc3C)n2)nc1 (stereo not shown)
I'm curious whether I or II has the smaller IC50 number. Which is it? // return label of chosen record
I
(I: 0.4 nM, II: 1.8 nM)

###

- targetOrTestSystem: SIK1 (Homo sapiens)
- protocolText: Enzymatic activity assay SIK1, RapidFire mass spectrometry (phosphorylation of CHK-peptide)
- Type: biochemical
- experimentalParameters: RapidFire MS, inhibition of SIK1; read-out: SIK1 RF IC50
pIC50: −log10 of the molar value.
recordedEndpoint: pIC50

Below, each entry is followed by its recorded pIC50 result.
molecule | targetOrTestSystem | pIC50
CCn1nc(C(F)(F)F)cc1-c1nc(-n2cnc3cc(Nc4ccc(C)nn4)ccc32)ccc1C(C)O (stereo not drawn) [Example 250] | SIK1 (Homo sapiens) | 6.01
Cc1ccc(Nc2ccc3c(c2)ncn3-c2ccc(C(C)O)c(N3CC4CC3CC4(F)F)n2)nn1 (stereo not drawn) [Example 322] | SIK1 (Homo sapiens) | 6.02
CNC(=O)c1cc(C)n(-c2nc(-n3cnc4ccc(Nc5ccc(C)nn5)cc43)ccc2C(C)O)n1 (stereo not drawn) [Example 144] | SIK1 (Homo sapiens) | 5.08
Cc1cnc(Nc2ccc3c(c2)ncn3-c2ccc(C(C)O)c(-n3nc(C#N)cc3C)n2)cn1 (stereo not drawn) [Example 82] | SIK1 (Homo sapiens) | 8.30
Cc1ccc(Nc2cc3c(cc2CC2COC2)ncn3-c2ccc(C(C)O)c(-n3nc(OC(F)F)cc3C)n2)nn1 (stereo not drawn) [Example 406] | SIK1 (Homo sapiens) | 7.33

1. Cc1ccc(Nc2ccc3c(c2)ncn3-c2ccc(C(C)O)c(-c3cnn(CC4CCC4)c3C)n2)nn1 (stereo not drawn) [Example 273, formic acid]
2. CC(O)c1ccc(-n2cnc3cc(OCCN4CCOCC4)ccc32)nc1Nc1ccccc1 (stereo not drawn) [Example 55]
3. Cc1cc(OC(F)F)nn1-c1nc(-n2cnc3cc(Nc4cccnn4)c(F)cc32)ccc1[C@H](C)O [Example 373]
4. Cc1nnc(Nc2ccc3c(c2)ncn3-c2ccc(C(C)O)c(-n3nc(C#N)cc3C)n2)o1 (stereo not drawn) [Example 103]
5. Cc1ccc(Nc2cc3ncn(-c4ccc(C(C)O)c(-n5nc(C#N)cc5C)n4)c3cc2OCCN2CCOCC2)cn1 (stereo not drawn) [Example 297]
Ascending by pIC50, please. The response must list the labels following the requested ordering.
2, 3, 1, 4, 5

1. Cc1ccc(Nc2ccc3c(c2)ncn3-c2ccc(C(C)O)c(-c3ccncc3C)n2)nn1 (stereo not drawn) [Example 162]
2. Cc1cc(C#N)nn1-c1nc(-n2cnc3cc(Nc4ccnnc4)ccc32)ccc1C(C)O (stereo not drawn) [Example 87]
3. Cc1cc(C#N)nn1-c1nc(-n2cnc3cc(Nc4nncc5c4OCCN5C)ccc32)ccc1C(C)O (stereo not drawn) [Example 310]
# desc sort on pIC50 across 3 molecules The response must list the labels following the requested ordering.
2, 3, 1
(2: 7.66, 3: 7.03, 1: 5.07)

A. Cc1cc(C#N)nn1-c1nc(-n2cnc3cc(Nc4ccc(C(F)F)nn4)ccc32)ccc1C(C)O (stereo not drawn) [Example 90]
B. Cc1ccc(Nc2ccc3c(c2)ncn3-c2ccc(C(C)O)c(-n3nc(C(F)F)c(C)c3C)n2)nn1 (stereo not drawn) [Example 369]
Between the two listed entries A and B , which has its pIC50 at the higher number? // return label of chosen record
A

###

These molecules were tested on SIK2 (Homo sapiens, UniProt Q9H0K1); IC50 is the recorded read-out.
recordedEndpoint: IC50 (nM)

Below, each entry is followed by its recorded IC50 result.
molecule | IC50 (nM)
Cc1ccc(Nc2ccc3c(c2)ncn3-c2ccc(C(C)O)c(N3CC4CC(F)(F)C4C3)n2)nn1 (stereo not shown) | 67.1
COC(C)Cn1ncc(-c2nc(-n3cnc4cc(Nc5ccc(C)nn5)ccc43)ccc2C(C)O)c1C (stereo not shown) | 4.7
Cc1ccc(Oc2ccc3c(c2)ncn3-c2ccc(C(C)O)c(-c3cn(CC(F)(F)F)nc3C)n2)nn1 (stereo not shown) | 35.4
Cc1ccc(Nc2ccc3ncn(-c4ccc(C(C)O)c(-n5cc(C)c(C#N)n5)n4)c3c2)nn1 (stereo not shown) | 135

P. Cc1cc(C#N)nn1-c1nc(-n2cnc3ccc(-c4ccn(C)c(=O)n4)cc32)ccc1C(C)O (stereo not shown)
Q. COc1cc2ncn(-c3ccc(C(O)C4CC4)c(-c4ccc(F)cc4OC)n3)c2cc1OC (stereo not shown)
I'm curious whether P or Q has the smaller IC50 number. Which is it? // return label of chosen record
P
(P: 28.6 nM, Q: 3880 nM)
